- System: A375 (human melanoma cell)
- Test Protocol: In vitro anticancer (antiproliferative) MTT assay, A375
- Type: cell-based
- Measurement Context: mean ± SD of three experiments in triplicate
Endpoint: IC50
State the value with its unit after it.

Sample C/C(=C\C(=O)Nc1ccccc1C(=O)O)c1ccc2ccccc2c1 [BIBR1532, reference compound] ; IC50 observed: 57.6 µM

====

- Measured On: telomerase (Homo sapiens)
- Construct: assayed for telomerase activity using MGC-803 cells extract; endogenous in cells
- Sequence (O14746 whole entry): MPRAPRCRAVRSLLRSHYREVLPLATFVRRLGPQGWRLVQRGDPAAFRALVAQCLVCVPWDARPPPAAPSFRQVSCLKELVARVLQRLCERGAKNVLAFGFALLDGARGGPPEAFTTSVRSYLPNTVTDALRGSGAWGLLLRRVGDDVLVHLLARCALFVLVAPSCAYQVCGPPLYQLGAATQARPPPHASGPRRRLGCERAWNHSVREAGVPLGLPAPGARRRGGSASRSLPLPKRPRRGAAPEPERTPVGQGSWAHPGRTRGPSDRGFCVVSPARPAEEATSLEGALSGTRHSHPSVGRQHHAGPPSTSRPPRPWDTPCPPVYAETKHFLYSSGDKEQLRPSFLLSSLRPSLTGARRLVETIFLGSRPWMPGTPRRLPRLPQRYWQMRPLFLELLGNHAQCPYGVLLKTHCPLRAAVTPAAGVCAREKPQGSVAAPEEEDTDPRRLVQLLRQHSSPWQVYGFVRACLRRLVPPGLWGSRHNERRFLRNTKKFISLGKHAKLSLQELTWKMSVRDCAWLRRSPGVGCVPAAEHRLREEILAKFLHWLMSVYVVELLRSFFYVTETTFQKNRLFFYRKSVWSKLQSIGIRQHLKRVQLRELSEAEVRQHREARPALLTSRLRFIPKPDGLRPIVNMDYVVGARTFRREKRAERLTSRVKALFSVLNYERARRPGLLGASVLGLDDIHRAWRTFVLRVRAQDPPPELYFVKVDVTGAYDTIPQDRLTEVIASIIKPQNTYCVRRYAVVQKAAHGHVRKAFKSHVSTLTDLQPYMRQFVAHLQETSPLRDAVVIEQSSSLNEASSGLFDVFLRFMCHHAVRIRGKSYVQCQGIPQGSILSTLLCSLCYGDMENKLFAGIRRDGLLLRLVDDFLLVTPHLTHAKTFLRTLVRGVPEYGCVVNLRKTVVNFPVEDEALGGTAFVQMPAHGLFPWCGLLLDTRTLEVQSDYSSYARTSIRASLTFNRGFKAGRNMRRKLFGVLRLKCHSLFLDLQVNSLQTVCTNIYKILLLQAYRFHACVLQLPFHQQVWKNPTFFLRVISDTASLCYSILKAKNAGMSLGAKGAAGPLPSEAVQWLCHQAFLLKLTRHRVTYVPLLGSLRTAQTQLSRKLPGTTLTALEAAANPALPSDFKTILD
- Sequence (O60832 2-514 partner limits assumed): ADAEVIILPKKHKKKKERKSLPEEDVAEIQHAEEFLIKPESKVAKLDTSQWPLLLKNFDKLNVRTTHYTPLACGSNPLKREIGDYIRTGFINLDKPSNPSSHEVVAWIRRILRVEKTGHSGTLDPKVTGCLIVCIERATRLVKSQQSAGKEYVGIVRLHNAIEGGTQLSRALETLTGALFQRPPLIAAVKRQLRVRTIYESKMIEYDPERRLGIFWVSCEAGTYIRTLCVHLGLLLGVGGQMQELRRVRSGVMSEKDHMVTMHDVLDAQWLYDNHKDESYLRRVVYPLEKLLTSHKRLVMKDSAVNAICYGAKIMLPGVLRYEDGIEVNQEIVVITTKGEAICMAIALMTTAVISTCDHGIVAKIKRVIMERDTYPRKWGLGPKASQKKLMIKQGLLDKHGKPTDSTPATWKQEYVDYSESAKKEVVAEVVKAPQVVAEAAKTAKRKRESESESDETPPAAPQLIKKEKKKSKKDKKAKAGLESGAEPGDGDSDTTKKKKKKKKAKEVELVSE
- Sequence (Q9NPE3 whole entry partner): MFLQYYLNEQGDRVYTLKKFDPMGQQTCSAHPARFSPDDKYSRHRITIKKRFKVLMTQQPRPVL
- Sequence (Q9NX24 whole entry partner): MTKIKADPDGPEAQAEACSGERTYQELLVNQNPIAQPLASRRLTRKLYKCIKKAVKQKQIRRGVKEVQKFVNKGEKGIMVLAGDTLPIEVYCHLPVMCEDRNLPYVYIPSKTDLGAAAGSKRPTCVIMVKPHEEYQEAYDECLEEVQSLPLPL
- Sequence (Q9NY12 whole entry partner): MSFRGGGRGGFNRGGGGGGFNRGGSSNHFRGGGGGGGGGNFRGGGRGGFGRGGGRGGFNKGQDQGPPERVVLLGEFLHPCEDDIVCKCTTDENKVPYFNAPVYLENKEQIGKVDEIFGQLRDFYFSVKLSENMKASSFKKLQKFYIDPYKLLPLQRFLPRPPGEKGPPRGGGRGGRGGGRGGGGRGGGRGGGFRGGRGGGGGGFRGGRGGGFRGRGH
- Test Protocol: Telomerase activity assay using MGC-803 cells extract
- Measurement Context: mean ± SD
Task for the reader: assign each of the following compounds its reported IC50.
Numbers only, in nM.

COc1cc(OC)c2c(=O)c(OCC(=O)Nc3nnc(-c4cccc(Br)c4)o3)c(-c3ccc(OC)c(OC)c3)oc2c1 2900
COc1cc(OC)c2c(=O)c(OCC(=O)Nc3nnc(-c4ccc(C(F)(F)F)cc4)o3)c(-c3cc(OC)c(OC)c(OC)c3)oc2c1 620
COc1cc(OC)c2c(=O)c(OCC(=O)Nc3nnc(-c4ccccc4OC(F)(F)F)o3)c(-c3ccc(OC)c(OC)c3)oc2c1 9220
COc1cc(OC)c2c(=O)c(OCC(=O)Nc3nnc(-c4cccs4)o3)c(-c3ccc(OC)c(OC)c3)oc2c1 3750

// next entry
Measured IC50, COc1cc(OC)c2c(=O)c(OCC(=O)Nc3nnc(-c4ccc(OC(F)(F)F)cc4)o3)c(-c3ccc(OC)c(OC)c3)oc2c1 : 1770
